Test system: MS2 coat protein
Assay: apparent KD of MS2 coat protein; designed switch direction (-1 OFF switch, 1 ON switch): -1; higher = weaker reporter binding
Conditions: Eterna round: R95; input ligand: none
property: apparent KD of MS2 coat protein (nM)
The response must be a number in nM with no trailing unit.

Below: 3 sequences and their reported apparent KD of MS2 coat protein.
chain="CCUCAGUAAGGAUAUCAGCUUAAGGAGGUGGUAAAGAGAGCUGAGAAGGUACAUGAGGAUCACCCAUGUUAAAA [Zatite] (puzzle: Exclusion 4)" observedmeasurement=50.2
chain="UUUUUAGUGCUUUUUAAGUACAUGAGGAUCACCCAUGUACUUGUCUGGUGGUCCGGACAAGCUUUUUGCUCGUCUAC [Sensor v3 - turn-off variant 1 - 2] (puzzle: Sensor v3, turn-off variant 1)" observedmeasurement=54.3
chain="GGUCUGCGAGGAUAUACAUGAGGAUCACCCAUGUGCGAGAUACUAGUGAGGUCGGUUGGUAGAAGGCGCGGACG [JL-ex3-2.07 salish99 mod] (puzzle: Exclusion 3)" observedmeasurement=55.6

Input: Look up apparent KD of MS2 coat protein for this sequence: GGUUGUUGUUUCCGUUCUUACAUGAGGAUCACCCAUGUUUCUUGUCGUGCUCGCGUUGCUCGUCUGGCUGUCUGUUG [salish99_TOv1_r3_071] (puzzle: Sensor v3, turn-off variant 1)
Output: 67.7

Input: And the next one, GGUCAAGGACAGAUCCGCGCUGCCCUUGACCGCUCAUUUACAUGAGGAUCACCCAUGUUUUUUGCUUGUCUUGUUAC [Erbete] (puzzle: Sensor v3, turn-off variant 2) ?
Output: 18.1

Input: And the next one, AGAUGUAGAUACCGAUCCUACAUGAGGAUCACCCAUGUAGCUAGACGUGCACGCGAAGCUCGUCAGACUACCAGAAG [salish99_TOv1_r3_084] (puzzle: Sensor v3, turn-off variant 1) ?
Output: 261

Input: And the next one, CGGAGCAGAGGGAGAUCCAACAUGAGGAUCACCCAUGUCUCACAAGCUUUUUGCUCAUCUUAUUGUACCUUGGUGCU [JL ViennaUCT Edcesobi mod 6] (puzzle: Sensor v3, turn-off variant 1) ?
Output: 46.8

Input: And the next one, UAGAUGUGAGGAUAUGGUAAAGAUAAGAUGAUGAAAGAACUCCAGAAGGCACAUGAGGAUCACCCAUGUAGAUG [JL-ex4-2.15 Jieux mod] (puzzle: Exclusion 4) ?
Output: 26

Input: And the next one, UCAAGUUUUUUGUUUUUUAACAUGAGGAUCACCCAUGUAUUUUUAUAGUAUGUGUGAAUAAGAUCUCGUGGUCUUAU [JR_SV3TOV1_Sub099] (puzzle: Sensor v3, turn-off variant 1) ?
Output: 36.5

Input: And the next one, GUAAAGGUAGGAUAUACGAAGAAAAAGGGUAGAAGAAAAACACAUGAGGAUCACCCAUGUAGAAGGACCAAAUG [Mat - Exclusion 2 - Mod of my Tesla design - D3] (puzzle: Exclusion 2) ?
Output: 34

* * *

Test system: K4 kissing-loop RNA reporter;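 also: bound reporter read as fluorescence of individual clusters on recovered sequencing chips by microscopy, with normalized cluster intensities fitted with a binding model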
Assay: apparent KD of K4 kissing-loop reporter; higher = weaker reporter binding
Details: Eterna round: R107; input ligand: none
Returns one of criterion met or criterion not met; criterion met when apparent KD of K4 kissing-loop reporter is >= 200 nM.

Observe how each entry below is paired with its result.
chain="UGUACCGAGUCAGGAUAUGGCGUCGAAAGACGAAUCUUAGUGAUGUUAGGGAUCUGCGAAAGCAGUCCAGAAGGGACUUGGUACU [FmnBS 26 U37]" labelvalue="criterion met"
chain="CCUUGGAUUAGCUGUACUUUUCUACGGGAUACCAGUGCGUAACACCACCCUUGGCAGCCCGAUUACCGGCAGUGAUGUUGCCUCU [theeternabot_sameState_KL_Theo_A_41]" labelvalue="criterion met"
chain="UCCUGCAAUCGACCACGAAAGUGGAUCGAUACCAGAGUCGAAAGACUCCCUUGGCAGCGAGUGAUGUUCGAGCAGGUAAAAUAAA [#SwitchBubble 23 #K4Late]" labelvalue="criterion met"
chain="UGCAGUGAUGUUGCGAGUGGCAGAUACGAAGGAGCGUGGUGAGACACAGGUAGGUCGCGUAUUGAAAUUGCUGUCACUAAAAUGC [#7]" labelvalue="criterion met"

Input: hey, is apparent KD of K4 kissing-loop reporter for this one >= 200 nM? GGUAGCAUGGCGGCCGCCACUACUGACAGCUGUCUGUUCUGGGUACCAGGGAGUGAUGUUCCCGGUAGGACCGGGCCAUGCUACC
Output: criterion not met

Data origin, for the record: the supplement of paper PMC9170038
